Catalogue of melting point readings, one per entry.

{"Compound": "Cc1c(N)c2cnc(NC3CCCCC3)nc2n([C@@H]2CCOC2)c1=O", "Assay metric": "melting point", "Observed value": "225 to 226 °C"}
{"Compound": "CC(=O)N1CCC(Nc2ncc3c(N)cc(=O)n([C@@H]4CC[C@@H](O)C4)c3n2)CC1 (racemic)", "Assay metric": "melting point", "Observed value": "192 to 194 °C"}
{"Compound": "CC(=O)N[C@H]1CC[C@H](Nc2ncc3c(N)cc(=O)n(C4CCCC4)c3n2)CC1", "Assay metric": "melting point", "Observed value": "172.6 to 176.6 °C"}
{"Compound": "Nc1cc(=O)n(C2CCCCC2)c2nc(NC3CCOCC3)ncc12", "Assay metric": "melting point", "Observed value": "160 to 164 °C"}
{"Compound": "Cc1ccccc1Nc1ncc2c(N)c(C)c(=O)n(C3CCC3)c2n1", "Assay metric": "melting point", "Observed value": "186 to 187 °C"}
{"Compound": "CC(=O)c1c(N)c2cnc(NC3CCCCC3)nc2n(C2CCC2)c1=O", "Assay metric": "melting point", "Observed value": "256 to 257 °C"}
{"Compound": "Nc1cc(=O)n(C2CCCCC2)c2nc(N[C@H]3CC[C@H](O)CC3)ncc12", "Assay metric": "melting point", "Observed value": "292 to 294 °C"}
{"Compound": "COC(=O)N[C@H]1CC[C@H](Nc2ncc3c(N)cc(=O)n(C4CC4)c3n2)CC1", "Assay metric": "melting point", "Observed value": "257 to 259 °C"}
{"Compound": "Cc1c(N)c2cnc(N[C@H]3CC[C@H](C(C)(C)O)CC3)nc2n(C2CCC2)c1=O", "Assay metric": "melting point", "Observed value": "223 to 224.8 °C"}
{"Compound": "Nc1cc(=O)n(Cc2ccccc2)c2nc(NC3CCCCC3)ncc12", "Assay metric": "melting point", "Observed value": "221.9 to 223.8 °C"}

The compound Cc1c(N)c2cnc(N[C@H]3CC[C@H](C(=O)N4CCCC4)CC3)nc2n(C2CCC2)c1=O showed melting point equal to 276.6 to 278.4 °C

# melting point of COC(=O)N[C@H]1CC[C@H](Nc2ncc3c(N)cc(=O)n(C4CCC4)c3n2)CC1 = 154.3 to 156 °C

Data point: COC(=O)N[C@H]1CC[C@H](Nc2ncc3c(N)cc(=O)n(C4CCCCC4)c3n2)CC1 ; melting point = 193.9 to 198 °C

###

For Human JNK1α1 (Homo sapiens), measured IC50 is reported for the entries below.
Report the figure in nM without appending any unit label.

{"Compound": "Cc1c(N)c2cnc(N[C@H]3CC[C@H](C(=O)N4CCCC4)CC3)nc2n(C2CCC2)c1=O [Compound I-9]", "Observed value": 34.4}
{"Compound": "Nc1cc(=O)n(C2CCCC2)c2nc(N[C@H]3CC[C@H](O)CC3)ncc12 [Compound I-5]", "Observed value": 20.5}

Kindly consider the entry below.
Measured IC50 of Nc1cc(=O)n(C2CCC2)c2nc(NC3CCCCC3)ncc12 [Compound I-3] : 17.9

###

The reader will find reported melting point values listed item by item below.

# melting point of Nc1cc(=O)n(C2CC2)c2nc(N[C@H]3CC[C@H](O)CC3)ncc12 = 256.3 to 258.7 °C

###

Quick list: melting point per entry.

Memo: Cc1c(N)c2cnc(N[C@H]3CC[C@H](N(C)S(C)(=O)=O)CC3)nc2n(C2CCC2)c1=O [Compound I-24] , reported melting point: 260 to 261 °C

melting point reported for this compound Nc1cc(=O)n(C2CCCC2)c2nc(NC3CCOCC3)ncc12 [Compound I-33] : 120 to 124 °C

Noted for Cc1c(N)c2cnc(NC3CCN(S(C)(=O)=O)CC3)nc2n(C2CCC2)c1=O [Compound I-40] : its melting point reads 265.3 to 267 °C

melting point measured on CCOC(=O)N1CCC(Nc2ncc3c(N)c(C)c(=O)n(C4CCC4)c3n2)CC1 [Compound I-56] = 201.3 to 202.6 °C

Entry under test: Nc1cc(=O)n(C2CCCCC2)c2nc(NC3CCCCC3)ncc12 [Compound I-32] . Its melting point was 243.1 to 244.9 °C

Sure, the documented melting point for CCc1c(N)c2cnc(NC3CCCCC3)nc2n(C2CCCC2)c1=O [Compound I-36] is 229.8 to 230.5 °C

Reported melting point of CC(C)c1c(N)c2cnc(N[C@H]3CC[C@H](C(=O)N4CCC(O)CC4)CC3)nc2n(C2CCC2)c1=O [Compound I-25] : 170 to 171 °C

The compound listed as CS(=O)(=O)N[C@H]1CC[C@H](Nc2ncc3c(N)cc(=O)n(C4CCCCC4)c3n2)CC1 [Compound I-14] has a reported melting point of > 300 °C

The recorded melting point for CC(=O)N[C@H]1CC[C@H](Nc2ncc3c(N)cc(=O)n(CCCO)c3n2)CC1 [Compound I-42] is > 300 °C

###

Here's a batch of compounds along with measured pIC50 for Human JNK2α2 (Homo sapiens, UniProt P45984).
Field pIC50 (float): negative decimal logarithm of the concentration in molar.

{"Sample smiles": "Nc1cc(=O)n(C2CCC2)c2nc(NC3CCCCC3)ncc12", "pIC50": 7.39}

Let me check: Nc1cc(=O)n(C2CCCC2)c2nc(N[C@H]3CC[C@H](O)CC3)ncc12 , system Human JNK2α2 (Homo sapiens, UniProt P45984), measured pIC50 is 7.36

###

Recorded melting point for the following compounds

{"Compound": "Nc1cc(=O)n(CCCO)c2nc(NC3CCCCC3)ncc12 [Compound I-8]", "melting point": "131 to 132.5 °C"}
{"Compound": "Cc1c(N)c2cnc(N[C@H]3CC[C@H](C(=O)N4CCC(O)CC4)CC3)nc2n(C2CCC2)c1=O [Compound I-15]", "melting point": "191.5 to 193 °C"}
{"Compound": "CC(=O)N1CCC(Nc2ncc3c(N)c(C)c(=O)n(C4CCCC4)c3n2)CC1 [Compound I-59]", "melting point": "281 to 283 °C"}
{"Compound": "CCc1c(N)c2cnc(N[C@H]3CC[C@H](NC(C)=O)CC3)nc2n(C2CCCC2)c1=O [Compound I-23]", "melting point": "> 300 °C"}
{"Compound": "Cc1c(N)c2cnc(N[C@@H]3CCCC[C@@H]3C)nc2n(C2CCC2)c1=O (racemic) [Compound I-58]", "melting point": "160 to 161 °C"}

// melting point lookup, compound = CC(=O)N[C@H]1CC[C@H](Nc2ncc3c(N)cc(=O)n([C@@H]4CC[C@@H](O)C4)c3n2)CC1 [Compound I-18] , result: 210 to 211.5 °C

Sure, the documented melting point for Cc1c(N)c2cnc(N[C@H]3CCCC[C@@H]3C)nc2n(C2CCC2)c1=O (racemic) [Compound I-60] is 209 to 210 °C

Record Nc1c(-c2ccccc2)c(=O)n(C2CCC2)c2nc(NC3CCCCC3)ncc12 [Compound I-31] . Reported melting point: 160 to 161 °C

###

Assay metric: melting point

Examples from the recorded data:
{"Compound": "Cc1c(N)c2cnc(NC3CCN(S(C)(=O)=O)CC3)nc2n([C@@H]2CCOC2)c1=O [Compound I-53]", "Observed value": "> 300 °C"}
{"Compound": "Cc1cccc(C)c1Nc1ncc2c(N)c(C)c(=O)n(C3CCC3)c2n1 [Compound I-70]", "Observed value": "213 to 214 °C"}
{"Compound": "Nc1c(-c2ccccc2Cl)c(=O)n(C2CCC2)c2nc(NC3CCCCC3)ncc12 [Compound I-16]", "Observed value": "175 to 176 °C"}

Note: attention shifts to another entry.
So for CS(=O)(=O)N1CCC(Nc2ncc3c(N)cc(=O)n(C4CCCCC4)c3n2)CC1 [Compound I-29] , the logged melting point turned out to be 250 to 254 °C

###

Listed molecules paired with reported melting point

{"Molecule": "CC(C)c1c(N)c2cnc(NC3CCCCC3)nc2n(C2CCC2)c1=O [Compound I-49]", "Observed value": "277.5 to 278 °C"}
{"Molecule": "Nc1cc(=O)n(C2CCCCC2)c2nc(NC3CCC(F)(F)CC3)ncc12 [Compound I-57]", "Observed value": "240 to 244.1 °C"}
{"Molecule": "Nc1cc(=O)n(C2CCCC2)c2nc(N[C@H]3CC[C@H](O)CC3)ncc12 [Compound I-5]", "Observed value": "246.5 to 248 °C"}
{"Molecule": "Nc1cc(=O)n(C2CC2)c2nc(NC3CCCCC3)ncc12 [Compound I-26]", "Observed value": "117 to 118 °C"}
{"Molecule": "Cc1c(N)c2cnc(N[C@H]3CC[C@H](C(=O)N4CCOCC4)CC3)nc2n(C2CCCC2)c1=O [Compound I-10]", "Observed value": "186.8 to 188 °C"}
{"Molecule": "Nc1cc(=O)n(CC2CC2)c2nc(NC3CCCCC3)ncc12 [Compound I-12]", "Observed value": "133 to 135 °C"}
{"Molecule": "Nc1cc(=O)n(C2CC2)c2nc(NC3CCOCC3)ncc12 [Compound I-54]", "Observed value": "264.4 to 266.8 °C"}
{"Molecule": "Nc1c(F)c(=O)n(C2CCC2)c2nc(NC3CCCCC3)ncc12 [Compound I-4]", "Observed value": "286 to 287 °C"}
{"Molecule": "Nc1cc(=O)n(CC2CC2)c2nc(NC3CCOCC3)ncc12 [Compound I-46]", "Observed value": "135 to 137.4 °C"}
{"Molecule": "Nc1cc(=O)n(C2CCCC2)c2nc(N[C@H]3CC[C@H](C(=O)N4CCOCC4)CC3)ncc12 [Compound I-13]", "Observed value": "292.5 to 295.3 °C"}

Given item Nc1cc(=O)n(CC2CC2)c2nc(NC3CCC3)ncc12 [Compound I-55] , the value recorded as its melting point is 236.1 to 239.1 °C

CCn1c(=O)cc(N)c2cnc(NC3CCCCC3)nc21 [Compound I-21] yielded melting point of 147.7 to 150.1 °C

melting point reading for Nc1cc(=O)n(C2CCCC2)c2nc(Nc3ccccc3)ncc12 [Compound I-45] : 128.3 to 130 °C
